target: UniProt:P33535; experiment: Displacement of [3H]DAMGO from mu opioid receptor in rat brain homogenate; assay type: tissue-based
measure: IC50 (nM)
Your answer should be a plain number; it is taken to be in nM.

{"columns": ["input smiles", "target desc", "IC50 / nM"],
 "data": [
  ["CCN[C@H](CN[C@H](CN[C@H](CN[C@H](CN[C@@H](CN[C@H](CN)Cc1ccc(O)cc1)[C@@H](C)O)Cc1ccccc1)Cc1ccccc1)Cc1ccc(O)cc1)Cc1ccc(O)cc1", "UniProt:P33535", 78]
]}

Now for a further molecule.
Entry under test: "CCN[C@H](CN[C@H](CN[C@H](CN[C@H](CN[C@H](CN[C@@H](CN)CO)Cc1ccc(O)cc1)Cc1ccccc1)Cc1ccccc1)Cc1ccc(O)cc1)Cc1ccc(O)cc1" . Its IC50 was 66

====

target: Delta-type opioid receptor (Homo sapiens); test: Displacement of [3H]DPDE from delta opioid receptor
Sequence (P41143 whole entry): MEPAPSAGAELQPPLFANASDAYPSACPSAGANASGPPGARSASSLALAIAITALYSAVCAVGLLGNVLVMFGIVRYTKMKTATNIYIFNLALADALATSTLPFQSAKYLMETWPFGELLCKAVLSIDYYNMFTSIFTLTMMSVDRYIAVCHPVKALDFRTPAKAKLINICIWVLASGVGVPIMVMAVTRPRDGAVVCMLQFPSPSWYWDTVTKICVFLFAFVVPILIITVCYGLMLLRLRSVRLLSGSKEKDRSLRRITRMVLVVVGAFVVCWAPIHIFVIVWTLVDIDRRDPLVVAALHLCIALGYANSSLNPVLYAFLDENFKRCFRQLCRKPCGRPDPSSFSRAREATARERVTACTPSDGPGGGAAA
measure: pIC50
Kindly note that pIC50 refers to -log10 of the concentration in mol/L and answer with the value alone.

Entry under test: "CN[C@H](CN[C@H](CN)Cc1ccc(O)cc1)Cc1ccc(O)cc1" . Its pIC50 was 4.96

Entry under test: "CNC[C@@H](Cc1ccccc1)N(C)C[C@H](Cc1ccc(O)cc1)N(C)C[C@@H](N)Cc1ccc(O)cc1" . Its pIC50 was 5.07

Entry under test: "CNC[C@@H](Cc1ccccc1)N(C)C[C@H](Cc1ccc(O)cc1)N(C)C[C@@H](Cc1ccc(O)cc1)N(C)C" . Its pIC50 was 4.95

====

molecular target: Mu-type opioid receptor (Rattus norvegicus, UniProt P33535)
Sequence (P33535 whole entry): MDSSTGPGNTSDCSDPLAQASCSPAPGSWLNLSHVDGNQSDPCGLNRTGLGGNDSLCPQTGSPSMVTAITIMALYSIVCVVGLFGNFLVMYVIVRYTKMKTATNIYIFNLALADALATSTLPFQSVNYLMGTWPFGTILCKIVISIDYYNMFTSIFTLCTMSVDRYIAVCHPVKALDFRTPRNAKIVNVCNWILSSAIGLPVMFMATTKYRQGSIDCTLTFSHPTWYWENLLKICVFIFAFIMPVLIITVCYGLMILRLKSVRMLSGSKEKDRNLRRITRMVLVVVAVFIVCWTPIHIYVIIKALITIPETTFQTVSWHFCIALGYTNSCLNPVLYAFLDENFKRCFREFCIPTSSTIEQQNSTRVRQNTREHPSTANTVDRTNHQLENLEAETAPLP
measure: pIC50
Kindly note that pIC50 refers to -log10 of the concentration in mol/L and answer with the value alone.

Some compounds with known pIC50 results, for comparison:
{"columns": ["input smiles", "reported measurement"],
 "data": [
  ["CCN[C@H](CN[C@H](CN[C@H](CN[C@H](CN)Cc1ccc(O)cc1)Cc1ccc(O)cc1)Cc1ccc(O)cc1)Cc1ccc(O)cc1", 7.02],
  ["CCN[C@H](CN[C@H](CN[C@H](CN[C@H](CN[C@@H](CN[C@H](CN)Cc1ccccc1)[C@@H](C)O)Cc1ccccc1)Cc1ccccc1)Cc1ccc(O)cc1)Cc1ccc(O)cc1", 6.97],
  ["CCN[C@H](CN[C@H](CN[C@H](CN[C@H](CN[C@@H](CN[C@@H](CN)CO)[C@@H](C)O)Cc1ccccc1)Cc1ccc(O)cc1)Cc1ccc(O)cc1)Cc1ccc(O)cc1", 6.79]
]}

Result for "CCN[C@H](CN[C@H](CN[C@H](CN[C@H](CN[C@@H](CN1CCC[C@H]1CN)[C@@H](C)O)Cc1ccccc1)Cc1ccc(O)cc1)Cc1ccc(O)cc1)Cc1ccc(O)cc1" , tested on Mu-type opioid receptor (Rattus norvegicus, UniProt P33535), pIC50: 6.81

Result for "CN[C@H](CN[C@H](CN)Cc1ccc(O)cc1)Cc1ccc(O)cc1" , tested on Mu-type opioid receptor (Rattus norvegicus, UniProt P33535), pIC50: 6.95

====

In what follows, each item is paired with its IC50 for Mu-type opioid receptor (Rattus norvegicus, UniProt P33535).
Your answer should be a plain number; it is taken to be in nM.

Some compounds with known IC50 results, for comparison:
{"columns": ["compound", "IC50, nM"],
 "data": [
  ["CCN[C@H](CN[C@H](CN[C@@H](Cc1ccc(O)cc1)CN1CCC[C@H]1CN[C@H](CN[C@H](CN)CCSC)Cc1ccc(O)cc1)Cc1ccc(O)cc1)Cc1ccc(O)cc1", 113],
  ["CCN[C@H](CN[C@H](CN[C@@H](Cc1ccccc1)CN1CCC[C@H]1CN[C@H](CN[C@H](CN)CCSC)Cc1ccc(O)cc1)Cc1ccc(O)cc1)Cc1ccc(O)cc1", 34],
  ["CCN[C@H](CN[C@H](CN[C@H](CN[C@H](CN[C@@H](CN[C@H](CN)CCSC)[C@@H](C)O)Cc1ccccc1)Cc1ccccc1)Cc1ccc(O)cc1)Cc1ccc(O)cc1", 115]
]}

Now for a further compound.
Entry under test: "CCN[C@H](CN[C@H](CN[C@@H](Cc1ccc(O)cc1)CN1CCC[C@H]1CN[C@H](CN[C@H](CN)Cc1ccc(O)cc1)Cc1ccc(O)cc1)Cc1ccc(O)cc1)Cc1ccc(O)cc1" . Its IC50 was 87

====

target: Mu-type opioid receptor (Rattus norvegicus)
measure: pIC50
Kindly note that pIC50 refers to -log10 of the concentration in mol/L and answer with the value alone.

Some compounds with known pIC50 results, for comparison:
{"columns": ["input smiles", "pIC50"],
 "data": [
  ["CCN[C@H](CN[C@H](CN[C@@H](Cc1ccc(O)cc1)CN1CCC[C@H]1CN[C@@H](CN[C@@H](CN)CO)[C@@H](C)O)Cc1ccc(O)cc1)Cc1ccc(O)cc1", 7.49],
  ["CCN[C@H](CN[C@H](CN[C@H](CN[C@H](CN[C@H](CN[C@H](CN)CCSC)Cc1ccc(O)cc1)Cc1ccccc1)Cc1ccc(O)cc1)Cc1ccc(O)cc1)Cc1ccc(O)cc1", 6.59]
]}

Result for "CCN[C@H](CN[C@H](CN[C@@H](Cc1ccccc1)CN1CCC[C@H]1CN[C@@H](CN[C@H](CN)Cc1ccc(O)cc1)[C@@H](C)O)Cc1ccc(O)cc1)Cc1ccc(O)cc1" , tested on Mu-type opioid receptor (Rattus norvegicus), pIC50: 7.70

Result for "CCN[C@H](CN[C@H](CN[C@H](CN[C@H](CN[C@@H](CN[C@@H](CN)CO)[C@@H](C)O)Cc1ccccc1)Cc1ccccc1)Cc1ccc(O)cc1)Cc1ccc(O)cc1" , tested on Mu-type opioid receptor (Rattus norvegicus), pIC50: 7.05

====

biological target: Mu-type opioid receptor (Rattus norvegicus)
measure: IC50 (nM)
Your answer should be a plain number; it is taken to be in nM.

{"columns": ["compound", "IC50 (nM)"],
 "data": [
  ["CN(C[C@@H](N)Cc1ccc(O)cc1)[C@H](CNCc1ccccc1)Cc1ccc(O)cc1", 10],
  ["CCN[C@H](CN[C@H](CN[C@@H](Cc1ccc(O)cc1)CN1CCC[C@H]1CN[C@@H](CN1CCC[C@H]1CN)[C@@H](C)O)Cc1ccc(O)cc1)Cc1ccc(O)cc1", 41],
  ["CN(C)[C@H](CN[C@H](CN)Cc1ccc(O)cc1)Cc1ccc(O)cc1", 262],
  ["CCN[C@H](CN[C@H](CN[C@@H](Cc1ccc(O)cc1)CN1CCC[C@H]1CN[C@@H](CN[C@H](CN)CCSC)[C@@H](C)O)Cc1ccc(O)cc1)Cc1ccc(O)cc1", 112]
]}

Now for a further compound.
Entry under test: CCN[C@H](CN[C@H](CN[C@@H](Cc1ccccc1)CN1CCC[C@H]1CN[C@H](CN[C@H](CN)CO)Cc1ccc(O)cc1)Cc1ccc(O)cc1)Cc1ccc(O)cc1 (stereo in doubt) . Its IC50 was 67

Data credit: ChEMBL document CHEMBL1145313
